IC50, Human immunodeficiency virus type 1 reverse transcriptase (Human immunodeficiency virus 1): measured values

{"columns": ["compound", "readoutType", "obsValue"],
 "data": [
  ["COC(=O)[C@H](Cc1c[nH]c2ccccc12)NP(=O)(OCCC#N)OCC1OC(n2cc(C)c(=O)[nH]c2=O)CC1N=[N+]=[N-] (stereo not given in full)", "IC50", "> 100 µM"],
  ["COC(=O)[C@H](Cc1ccccc1)NP(=O)(OCCC#N)OCC1OC(n2cc(C)c(=O)[nH]c2=O)CC1N=[N+]=[N-] (stereo not given in full)", "IC50", "> 100 µM"],
  ["COC(=O)[C@H](Cc1c[nH]c2ccccc12)NP(=O)(O)OC[C@H]1O[C@@H](n2cc(C)c(=O)[nH]c2=O)C[C@@H]1N=[N+]=[N-]", "IC50", "> 100 µM"],
  ["Cc1cn([C@H]2C[C@H](N=[N+]=[N-])[C@@H](CO)O2)c(=O)[nH]c1=O", "IC50", "0.01 µM"]
]}

Now take the following compound into account.
Ask: Reported IC50 for COC(=O)[C@H](Cc1ccccc1)NP(=O)(O)OCC1OC(n2cc(C)c(=O)[nH]c2=O)CC1N=[N+]=[N-] (stereo not given in full) : what is it?
Reply: > 100 µM
